Assignment: determine reported IC50 for the given compounds.
- TEST SYSTEM: C-Raf Raf-1 (truncated), active (Homo sapiens, UniProt P04049, Y340D/Y341D)
- Sequence (P04049 306-648 Y340D/Y341D): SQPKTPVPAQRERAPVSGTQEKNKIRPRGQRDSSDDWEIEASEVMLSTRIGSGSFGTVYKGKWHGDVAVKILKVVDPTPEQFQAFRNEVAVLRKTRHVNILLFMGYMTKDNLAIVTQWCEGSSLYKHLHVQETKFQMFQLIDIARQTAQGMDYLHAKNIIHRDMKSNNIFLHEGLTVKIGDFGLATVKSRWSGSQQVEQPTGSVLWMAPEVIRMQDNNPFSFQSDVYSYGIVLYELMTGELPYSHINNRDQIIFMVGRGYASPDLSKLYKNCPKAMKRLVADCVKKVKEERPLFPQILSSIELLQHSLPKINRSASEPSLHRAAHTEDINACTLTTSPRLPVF
- ASSAY PROTOCOL: C-Raf kinase inhibition (MAPH assay / IMAP assay)
- TEST CONTEXT: read-out: Biochemical IC50 C-Raf

Example entries begin here.
{"SMILES RECORD": "NCCCCOn1c(=O)c(-c2c(Cl)cccc2Cl)cc2cnc(Nc3ccccc3)nc21", "IC50": "< 100 nM"}
{"SMILES RECORD": "COn1c(=O)c(-c2c(F)cccc2Cl)cc2cnc(Nc3cccc(CO)c3)nc21", "IC50": "< 100 nM"}
{"SMILES RECORD": "COn1c(=O)c(-c2c(F)cccc2C(F)(F)F)cc2cnc(Nc3ccc(N4CCN(C)CC4)cc3)nc21", "IC50": "< 1000 nM"}
{"SMILES RECORD": "COn1c(=O)c(-c2cccc(NC(C)=O)c2)cc2cnc(Nc3ccccc3)nc21", "IC50": "< 100 nM"}

Go through the list and state IC50 for each entry.
1. COn1c(=O)c(-c2ccc(Cl)c(Cl)c2)cc2cnc(Nc3ccc(N4CCN(C)CC4)cc3)nc21
2. COn1c(=O)c(-c2c(C)cccc2C)cc2cnc(Nc3cccc(S(N)(=O)=O)c3)nc21
3. COn1c(=O)c(-c2c(Cl)cccc2Cl)cc2cnc(Nc3cc(CO)ccc3F)nc21
4. COn1c(=O)c(-c2cc(NC(=O)c3cccnc3)ccc2Cl)cc2cnc(Nc3ccccc3)nc21

Marked response:
1. < 1000 nM
2. < 100 nM
3. < 100 nM
4. < 100 nM

Give IC50 for each of the items listed below.
1. NCCOCCOn1c(=O)c(-c2c(Cl)cccc2Cl)cc2cnc(Nc3ccccc3)nc21
2. COn1c(=O)c(-c2c(F)cccc2Cl)cc2cnc(Nc3cccc(S(N)(=O)=O)c3)nc21
3. COc1cccc(Nc2ncc3cc(-c4c(Cl)cccc4Cl)c(=O)n(OCCN)c3n2)c1

Marked response:
1: < 500 nM; 2: < 100 nM; 3: < 100 nM

Hello, I would appreciate it if you could give IC50 for each entry below.
1. CC(C)(C)On1c(=O)c(-c2ccccc2Cl)cc2cnc(Nc3ccccc3)nc21
2. COn1c(=O)c(-c2c(Cl)cccc2Cl)cc2cnc(N)nc21
3. COCCNc1ncc2cc(-c3c(Cl)cccc3Cl)c(=O)n(OC)c2n1
4. COc1cccc(Nc2ncc3cc(-c4c(C)cccc4C)c(=O)n(OC)c3n2)c1
5. NCCCCOn1c(=O)c(-c2c(Cl)cccc2Cl)cc2cnc(Nc3cccc(S(N)(=O)=O)c3)nc21
6. COn1c(=O)c(-c2c(C)cccc2C)cc2cnc(Nc3ccc(N4CCN(C)CC4)cc3)nc21

Marked response:
["< 10000 nM", "< 100 nM", "< 100 nM", "< 100 nM", "< 100 nM", "< 100 nM"]
